# assay.setup: in water, 293.2 K
measured.parameter: solubility (mole fraction)
Answers are plain numbers.

Request: Dear colleague, please send me the reported solubility (mole fraction) for CCCCCCCCC(=O)NCc1ccc(O)c(OC)c1 when you can.
Response: 1.64e-05

* * *

# assay.setup: in acetonitrile, 323.2 K
measured.parameter: solubility (mole fraction)
Give bare numbers.

Request: Dear colleague, please send me the reported solubility (mole fraction) for CCCCCCCCC(=O)NCc1ccc(O)c(OC)c1 when you can.
Response: 0.714

* * *

# assay.setup: in DMSO, 318.2 K
measured.parameter: solubility (mole fraction)
Numbers only.

Request: Dear colleague, please send me the reported solubility (mole fraction) for CCCCCCCCC(=O)NCc1ccc(O)c(OC)c1 when you can.
Response: 0.671

* * *

# assay.setup: in MTBE, 318.2 K
measured.parameter: solubility (mole fraction)
One number for each entry.

Request: Dear colleague, please send me the reported solubility (mole fraction) for CCCCCCCCC(=O)NCc1ccc(O)c(OC)c1 when you can.
Response: 0.569

* * *

# assay.setup: in MTBE, 303.2 K
measured.parameter: solubility (mole fraction)

Request: Dear colleague, please send me the reported solubility (mole fraction) for CCCCCCCCC(=O)NCc1ccc(O)c(OC)c1 when you can.
Response: 0.114

* * *

# assay.setup: in methanol, 318.2 K
measured.parameter: solubility (mole fraction)
Answers are plain numbers.

Request: Dear colleague, please send me the reported solubility (mole fraction) for CCCCCCCCC(=O)NCc1ccc(O)c(OC)c1 when you can.
Response: 0.583

* * *

# assay.setup: in MTBE, 308.2 K
measured.parameter: solubility (mole fraction)
Numbers only.

Request: Dear colleague, please send me the reported solubility (mole fraction) for CCCCCCCCC(=O)NCc1ccc(O)c(OC)c1 when you can.
Response: 0.27

* * *

# assay.setup: in methanol, 313.2 K
measured.parameter: solubility (mole fraction)
Give bare numbers.

Request: Dear colleague, please send me the reported solubility (mole fraction) for CCCCCCCCC(=O)NCc1ccc(O)c(OC)c1 when you can.
Response: 0.489

* * *

# assay.setup: in acetone, 303.2 K
measured.parameter: solubility (mole fraction)

Request: Dear colleague, please send me the reported solubility (mole fraction) for CCCCCCCCC(=O)NCc1ccc(O)c(OC)c1 when you can.
Response: 0.299

* * *

# assay.setup: in water, 303.2 K
measured.parameter: solubility (mole fraction)

Request: Dear colleague, please send me the reported solubility (mole fraction) for CCCCCCCCC(=O)NCc1ccc(O)c(OC)c1 when you can.
Response: 2.32e-05

* * *

# assay.setup: in DMSO, 303.2 K
measured.parameter: solubility (mole fraction)
Numbers only.

Request: Dear colleague, please send me the reported solubility (mole fraction) for CCCCCCCCC(=O)NCc1ccc(O)c(OC)c1 when you can.
Response: 0.403

* * *

# assay.setup: in methanol, 308.2 K
measured.parameter: solubility (mole fraction)
Give bare numbers.

Request: Dear colleague, please send me the reported solubility (mole fraction) for CCCCCCCCC(=O)NCc1ccc(O)c(OC)c1 when you can.
Response: 0.428

* * *

# assay.setup: in n-hexane, 303.2 K
measured.parameter: solubility (mole fraction)
Give bare numbers.

Request: Dear colleague, please send me the reported solubility (mole fraction) for CCCCCCCCC(=O)NCc1ccc(O)c(OC)c1 when you can.
Response: 0.000119

* * *

# assay.setup: in acetone, 318.2 K
measured.parameter: solubility (mole fraction)

Request: Dear colleague, please send me the reported solubility (mole fraction) for CCCCCCCCC(=O)NCc1ccc(O)c(OC)c1 when you can.
Response: 0.6

* * *

# assay.setup: in acetonitrile, 318.2 K
measured.parameter: solubility (mole fraction)
One number for each entry.

Request: Dear colleague, please send me the reported solubility (mole fraction) for CCCCCCCCC(=O)NCc1ccc(O)c(OC)c1 when you can.
Response: 0.553

* * *

# assay.setup: in acetone, 308.2 K
measured.parameter: solubility (mole fraction)
Give bare numbers.

Request: Dear colleague, please send me the reported solubility (mole fraction) for CCCCCCCCC(=O)NCc1ccc(O)c(OC)c1 when you can.
Response: 0.39

* * *

# assay.setup: in n-hexane, 323.2 K
measured.parameter: solubility (mole fraction)
One number for each entry.

Request: Dear colleague, please send me the reported solubility (mole fraction) for CCCCCCCCC(=O)NCc1ccc(O)c(OC)c1 when you can.
Response: 0.000595

* * *

# assay.setup: in water, 313.2 K
measured.parameter: solubility (mole fraction)
Give bare numbers.

Request: Dear colleague, please send me the reported solubility (mole fraction) for CCCCCCCCC(=O)NCc1ccc(O)c(OC)c1 when you can.
Response: 3.24e-05

* * *

# assay.setup: in acetone, 293.2 K
measured.parameter: solubility (mole fraction)
One number for each entry.

Request: Dear colleague, please send me the reported solubility (mole fraction) for CCCCCCCCC(=O)NCc1ccc(O)c(OC)c1 when you can.
Response: 0.161

* * *

# assay.setup: in ethyl acetate, 293.2 K
measured.parameter: solubility (mole fraction)
Numbers only.

Request: Dear colleague, please send me the reported solubility (mole fraction) for CCCCCCCCC(=O)NCc1ccc(O)c(OC)c1 when you can.
Response: 0.0625

* * *

# assay.setup: in MTBE, 323.2 K
measured.parameter: solubility (mole fraction)
Answers are plain numbers.

Request: Dear colleague, please send me the reported solubility (mole fraction) for CCCCCCCCC(=O)NCc1ccc(O)c(OC)c1 when you can.
Response: 0.729

* * *

# assay.setup: in acetonitrile, 293.2 K
measured.parameter: solubility (mole fraction)
Answers are plain numbers.

Request: Dear colleague, please send me the reported solubility (mole fraction) for CCCCCCCCC(=O)NCc1ccc(O)c(OC)c1 when you can.
Response: 0.0118

* * *

# assay.setup: in n-hexane, 313.2 K
measured.parameter: solubility (mole fraction)
Give bare numbers.

Request: Dear colleague, please send me the reported solubility (mole fraction) for CCCCCCCCC(=O)NCc1ccc(O)c(OC)c1 when you can.
Response: 0.000296

* * *

# assay.setup: in DMSO, 313.2 K
measured.parameter: solubility (mole fraction)
Give bare numbers.

Request: Dear colleague, please send me the reported solubility (mole fraction) for CCCCCCCCC(=O)NCc1ccc(O)c(OC)c1 when you can.
Response: 0.595

* * *

# assay.setup: in ethyl acetate, 318.2 K
measured.parameter: solubility (mole fraction)
Give bare numbers.

Request: Dear colleague, please send me the reported solubility (mole fraction) for CCCCCCCCC(=O)NCc1ccc(O)c(OC)c1 when you can.
Response: 0.566

* * *

# assay.setup: in acetonitrile, 298.2 K
measured.parameter: solubility (mole fraction)
Answers are plain numbers.

Request: Dear colleague, please send me the reported solubility (mole fraction) for CCCCCCCCC(=O)NCc1ccc(O)c(OC)c1 when you can.
Response: 0.0357

* * *

# assay.setup: in ethyl acetate, 308.2 K
measured.parameter: solubility (mole fraction)

Request: Dear colleague, please send me the reported solubility (mole fraction) for CCCCCCCCC(=O)NCc1ccc(O)c(OC)c1 when you can.
Response: 0.309

* * *

# assay.setup: in methanol, 298.2 K
measured.parameter: solubility (mole fraction)
Numbers only.

Request: Dear colleague, please send me the reported solubility (mole fraction) for CCCCCCCCC(=O)NCc1ccc(O)c(OC)c1 when you can.
Response: 0.28

* * *

# assay.setup: in acetonitrile, 313.2 K
measured.parameter: solubility (mole fraction)
Answers are plain numbers.

Request: Dear colleague, please send me the reported solubility (mole fraction) for CCCCCCCCC(=O)NCc1ccc(O)c(OC)c1 when you can.
Response: 0.38

* * *

# assay.setup: in acetone, 298.2 K
measured.parameter: solubility (mole fraction)
Numbers only.

Request: Dear colleague, please send me the reported solubility (mole fraction) for CCCCCCCCC(=O)NCc1ccc(O)c(OC)c1 when you can.
Response: 0.229

* * *

# assay.setup: in water, 323.2 K
measured.parameter: solubility (mole fraction)

Request: Dear colleague, please send me the reported solubility (mole fraction) for CCCCCCCCC(=O)NCc1ccc(O)c(OC)c1 when you can.
Response: 4.27e-05

* * *

# assay.setup: in methanol, 323.2 K
measured.parameter: solubility (mole fraction)

Request: Dear colleague, please send me the reported solubility (mole fraction) for CCCCCCCCC(=O)NCc1ccc(O)c(OC)c1 when you can.
Response: 0.736

* * *

# assay.setup: in ethyl acetate, 313.2 K
measured.parameter: solubility (mole fraction)
One number for each entry.

Request: Dear colleague, please send me the reported solubility (mole fraction) for CCCCCCCCC(=O)NCc1ccc(O)c(OC)c1 when you can.
Response: 0.421

* * *

# assay.setup: in ethyl acetate, 303.2 K
measured.parameter: solubility (mole fraction)
Numbers only.

Request: Dear colleague, please send me the reported solubility (mole fraction) for CCCCCCCCC(=O)NCc1ccc(O)c(OC)c1 when you can.
Response: 0.199

* * *

# assay.setup: in ethyl acetate, 323.2 K
measured.parameter: solubility (mole fraction)
Give bare numbers.

Request: Dear colleague, please send me the reported solubility (mole fraction) for CCCCCCCCC(=O)NCc1ccc(O)c(OC)c1 when you can.
Response: 0.712

* * *

# assay.setup: in DMSO, 298.2 K
measured.parameter: solubility (mole fraction)

Request: Dear colleague, please send me the reported solubility (mole fraction) for CCCCCCCCC(=O)NCc1ccc(O)c(OC)c1 when you can.
Response: 0.315

* * *

# assay.setup: in water, 308.2 K
measured.parameter: solubility (mole fraction)
One number for each entry.

Request: Dear colleague, please send me the reported solubility (mole fraction) for CCCCCCCCC(=O)NCc1ccc(O)c(OC)c1 when you can.
Response: 2.71e-05
